tgt: UniProtKB Q9NXA8
Sequence (Q9NXA8 whole entry): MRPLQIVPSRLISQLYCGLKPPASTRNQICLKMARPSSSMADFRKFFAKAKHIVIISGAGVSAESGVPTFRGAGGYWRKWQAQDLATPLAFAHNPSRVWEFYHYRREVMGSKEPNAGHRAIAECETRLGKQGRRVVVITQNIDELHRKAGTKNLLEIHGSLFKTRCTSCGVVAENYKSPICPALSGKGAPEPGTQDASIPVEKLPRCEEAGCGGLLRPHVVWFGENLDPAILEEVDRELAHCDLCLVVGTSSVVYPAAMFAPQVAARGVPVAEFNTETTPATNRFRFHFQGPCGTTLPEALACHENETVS
pIC50: −log10 of the molar value.
observed-property: pIC50

In plain terms, O=C(CCCCCCC(=O)Nc1ccccc1)NO has a documented pIC50 of < 4.00

Origin of the recorded values: ChEMBL document CHEMBL2163301
